# METHOD_NOTES: Pharmacokinetics in ICR mice after intravenous and intragastric administration
# Type: in vivo
# SETTINGS: male, ICR, mouse, plasma, iv, 2 mg/kg, ICR mice, IV 2 mg/kg, mean of 3 animals; read-out: Vz
For each record, check the reported Vd: if it is below 0.5 L/kg write met, else write not met.

Q: Input COc1cc(OC)c(-c2nc3c(n2C(C)C)[C@@]2(C(=O)Nc4cc(Cl)ccc42)N(c2cc(Cl)cnc2C)C3=O)cn1 ; condition: Vd strictly below 0.5 L/kg. Does it hold?
Result: not met

Q: Does the reported Vd of the following compound sit strictly below 0.5 L/kg? CCOc1ncc(-c2nc3c(n2C(C)C)[C@@]2(C(=O)Nc4cc(Cl)ccc42)N(c2cc(Cl)cnc2C)C3=O)c(OC)n1
Result: not met

Q: Lab log: compare recorded Vd with 0.5 L/kg; is it strictly lower for COc1ncc(-c2nc3c(n2C(C)C)[C@@]2(C(=O)Nc4cc(Cl)ccc42)N(c2cc(F)cc(Cl)c2)C3=O)c(OC)n1 ?
Result: not met

Q: Take the compound CCOc1cc(OC)c(-c2nc3c(n2C(C)C)[C@@]2(C(=O)Nc4cc(Cl)ccc42)N(c2cc(Cl)ccc2C)C3=O)cn1 and say whether its Vd is less than 0.5 L/kg.
Result: met

Q: Field: below-cutoff. Rule: recorded Vd strictly less than 0.5 L/kg. Subject: COc1cc(C(C)C)ccc1-c1nc2c(n1C(C)C)[C@@]1(C(=O)Nc3cc(Cl)ccc31)N(c1cc(Cl)ccc1C)C2=O
Result: not met

Q: Here's an entry: COc1cc(C2CC2)ncc1-c1nc2c(n1C(C)C)[C@@]1(C(=O)Nc3cc(Cl)ccc31)N(c1cc(Cl)ccc1C)C2=O . Is its Vd below 0.5 L/kg?
Result: not met

Q: For COc1cc(C(F)(F)F)ncc1-c1nc2c(n1C(C)C)[C@@]1(C(=O)Nc3cc(Cl)ccc31)N(c1cc(Cl)ccc1C)C2=O , is the recorded Vd below the cut-off of 0.5 L/kg?
Result: not met

Q: Decide: Vd of COc1cc(OC(C)C)ncc1-c1nc2c(n1C(C)C)[C@@]1(C(=O)Nc3cc(Cl)ccc31)N(c1cc(Cl)cnc1C)C2=O strictly below 0.5 L/kg?
Result: met
